// reported efficacy of cysteine peptide change per item
- System: cysteine peptide Ac-RFAACAA-COOH
- Assay method text: efficacy of cysteine peptide change (negative = depletion) (% activity); higher = less depletion
- Test settings: incubation time: 24 h
Reply briefly: the number, and no unit.

Examples from the recorded data:
Q: Record O=C(Nc1cccc(Cl)c1)OCC#CCCl : what is its efficacy of cysteine peptide change with cysteine peptide Ac-RFAACAA-COOH?
A: -52.5

Q: Record lookup: for cysteine peptide Ac-RFAACAA-COOH, what efficacy of cysteine peptide change belongs to COc1cc(C(C)(C)C)c(O)c(C(C)(C)C)c1 ?
A: -96.8

Q: GET /values?readout=efficacy of cysteine peptide change&system=cysteine peptide Ac-RFAACAA-COOH&item= CCOc1ccc2nc3cc(N)ccc3c(N)c2c1 [Ethacridine lactate monohydrate]
A: -93.5

Q: Please tell me: efficacy of cysteine peptide change of ClC1=C(Cl)C(Cl)(Cl)C(Cl)=C1Cl , system cysteine peptide Ac-RFAACAA-COOH?
A: -137

Further cases:
Q: Record lookup: for cysteine peptide Ac-RFAACAA-COOH, what efficacy of cysteine peptide change belongs to CCCSS/C(CCO)=C(/C)N(C=O)Cc1cnc(C)nc1N ?
A: -112

Q: API: value(readout=efficacy of cysteine peptide change, system=cysteine peptide Ac-RFAACAA-COOH) for record O=C(N/N=C/c1ccccc1O)c1ccncc1
A: -3.5

Q: Report efficacy of cysteine peptide change for COP(=O)(OC)O/C(=C\Cl)c1cc(Cl)c(Cl)cc1Cl tested on cysteine peptide Ac-RFAACAA-COOH.
A: 4.88

Q: Value wanted: efficacy of cysteine peptide change (cysteine peptide Ac-RFAACAA-COOH) of entry CCC(=O)C=Cc1ccc(OC)cc1
A: -4.91

Q: Form entry - test system: cysteine peptide Ac-RFAACAA-COOH; read-out: efficacy of cysteine peptide change; molecule: CO[C@@H]1[C@H](OC(=O)/C=C/C=C/C=C/C=C/C(=O)O)CC[C@]2(CO2)[C@H]1[C@@]1(C)O[C@@H]1CC=C(C)C
A: -117

###

- System: lysine peptide Ac-RFAAKAA-COOH
- Assay method text: efficacy of lysine peptide change (negative = depletion) (% activity); higher = less depletion
- Test settings: incubation time: 24 h
Counter-ions that a name gives are not always drawn.
// map efficacy of lysine peptide change onto a label; ranges low = under -3, mid = from -3 up to 20, high = 20 and over

Example entries begin here.
Q: For O=C(O)Cc1cc(I)c(Oc2cc(I)c(O)c(I)c2)c(I)c1 , which efficacy of lysine peptide change bin applies?
A: mid

Q: Note: place this compound into its band. Item: CCc1oc2ccccc2c1C(=O)c1cc(I)c(O)c(I)c1
A: low

Q: Class (by measured efficacy of lysine peptide change) for COc1ccc2[nH]cc(CCN(C(C)C)C(C)C)c2c1 [5-Methoxy-N,N-diisopropyltryptamine hydrochloride]
A: high

Q: Could you place O=C(O)c1ccccc1C(=O)Nc1cccc2ccccc12 in its proper category? Many thanks.
A: mid

Q: Record COc1cc(Nc2c(C#N)cnc3cc(OCCCN4CCN(C)CC4)c(OC)cc23)c(Cl)cc1Cl — which class?
A: high

New cases:
Q: Which bin should I file CS/C(C)=N\OC(=O)N(C)SN(C)C(=O)O/N=C(\C)SC under?
A: high

Q: Lab note: sort O=C(Nc1ncc([N+](=O)[O-])s1)c1cccs1 into the matching efficacy of lysine peptide change band.
A: high

Q: Class (by measured efficacy of lysine peptide change) for O=C(Oc1ccccc1)c1ccccc1O [Phenyl salicylate]
A: mid

Q: Exercise: read the entry CNc1ccc(O)cc1 [4-(Methylamino)phenol Sulfate] and state which class it falls under.
A: low

Q: Hey, which category is C#CCN(C)CCCOc1ccc(Cl)cc1Cl [Clorgyline hydrochloride] in, do you know?
A: high

Q: Lab note: sort Clc1ccc2c(c1)Nc1ccccc1S2 into the matching efficacy of lysine peptide change band.
A: low

Q: Which class does Nc1ccc2ccccc2c1 fall in?
A: low

Q: Each compound maps to one class by efficacy of lysine peptide change. Which class for Clc1ccc(C(Cn2ccnc2)OCc2ccc(Sc3ccccc3)cc2)c(Cl)c1 (centres undefined) [Fenticonazole nitrate] ?
A: mid

Q: Consider c1ccc2sc(SNC3CCCCC3)nc2c1 [N-Cyclohexyl-2-benzothiazolesulfenamide] . To which efficacy of lysine peptide change class does it belong?
A: high

Q: Which efficacy of lysine peptide change band matches CC(C)CC(NC(=O)OCC1c2ccccc2-c2ccccc21)C(=O)O (stereo in doubt) ?
A: mid

Q: Note: place this compound into its band. Item: CN(C)c1ccc(N)cc1
A: low

Q: Please report the category associated with c1cc(OCC2CO2)cc(OCC2CO2)c1 (centres undefined) , nothing else.
A: high

Q: # classify by efficacy of lysine peptide change band: c1ccc(SCCSc2ccccc2)cc1
A: low

###

- Test system: cysteine peptide Ac-RFAACAA-COOH
- Assay method text: efficacy of cysteine peptide change (negative = depletion) (% activity); higher = less depletion
- Test settings: incubation time: 24 h
Counter-ions that a name gives are not always drawn.
efficacy of cysteine peptide change below -40 gives label 0; efficacy of cysteine peptide change at or above it gives label 1.

Examples from the recorded data:
Q: API: above_or_equal(metric=efficacy of cysteine peptide change, cutoff=-40) for item O=C(Oc1ccccc1)c1ccccc1O [Phenyl salicylate]
A: label 1

Q: Answer whether efficacy of cysteine peptide change of O=C(O)c1cccnc1Nc1cccc(C(F)(F)F)c1 is greater than or equal to -40.
A: label 1

Q: Given CCCCC1C(=O)N(c2ccccc2)N(c2ccc(O)cc2)C1=O (centres undefined) , state whether its efficacy of cysteine peptide change is at least -40.
A: label 0

New cases:
Q: Please indicate if the recorded efficacy of cysteine peptide change for Oc1c(Br)cc(Br)c2cccnc12 meets or exceeds -40.
A: label 0

Q: Does the compound O=[N+]([O-])c1ccc(Oc2ccc(C(F)(F)F)cc2[N+](=O)[O-])cc1 have recorded efficacy of cysteine peptide change that is -40 or more?
A: label 1

Q: Reported efficacy of cysteine peptide change at or above -40? c1ccc2[nH]c(-c3cscn3)nc2c1
A: label 1

Q: Has Nc1ccc(/N=N/c2ccccc2)c(N)n1 [Phenazopyridine hydrochloride] a recorded efficacy of cysteine peptide change greater than or equal to -40?
A: label 1

Q: # bool: efficacy of cysteine peptide change of O=[N+]([O-])c1c(Cl)c(Cl)c(Cl)c(Cl)c1Cl >= -40
A: label 1

Q: Given the entry [CH3][Hg][Cl] [Methyl mercuric (II) chloride] , answer whether its efficacy of cysteine peptide change meets or surpasses -40.
A: label 0

Q: Has O=C(O)CCCCCCCCC(=O)O a recorded efficacy of cysteine peptide change greater than or equal to -40?
A: label 1

Q: Given C[C@]12CC[C@H](O)C[C@H]1CC[C@@H]1[C@@H]2C[C@@H](O)[C@]2(C)[C@@H](C3=CC(=O)OC3)CC[C@]12O , state whether its efficacy of cysteine peptide change is at least -40.
A: label 1

Q: Record C=CCOC(Cn1ccnc1)c1ccc(Cl)cc1Cl (centres undefined) [Imazalil sulfate] ; criterion: efficacy of cysteine peptide change no lower than -40. Met?
A: label 1

Q: API: above_or_equal(metric=efficacy of cysteine peptide change, cutoff=-40) for item CCN(CC)CCOc1ccc2c(c1)C(=O)c1cc(OCCN(CC)CC)ccc1-2
A: label 0

Q: I'd appreciate it if you could say whether O=[N+]([O-])c1ccc(O/N=C/c2cc(Br)c(O)c(Br)c2)c([N+](=O)[O-])c1 has efficacy of cysteine peptide change at least equal to -40.
A: label 0

Q: Is it the case that CC1=C(/C=C/C(C)=C/C=C/C(C)=C/C=O)C(C)(C)CCC1 [13-cis-Retinal (Vitamin A aldehyde)] has efficacy of cysteine peptide change reaching or exceeding -40?
A: label 0

Q: Check if efficacy of cysteine peptide change >= -40 (inclusive). Item: CC(COc1ccc(Oc2ccccc2)cc1)Oc1ccccn1 (centres undefined)
A: label 1

Q: In plain terms: is recorded efficacy of cysteine peptide change at least -40 for O=C1c2ccccc2C(=O)C1c1ccc2ccccc2n1 ?
A: label 1

Q: hey, is efficacy of cysteine peptide change for this one >= -40? N#CCC#N
A: label 0

Q: Hi, just wondering whether Cc1ccc(N)cc1O shows efficacy of cysteine peptide change of -40 or higher.
A: label 0

###

- Test system: lysine peptide Ac-RFAAKAA-COOH
- Assay method text: efficacy of lysine peptide change (negative = depletion) (% activity); higher = less depletion
- Test settings: incubation time: 24 h
Endpoint label: efficacy of lysine peptide change
Lab note: write the figure by itself, no unit.

Some molecules with recorded efficacy of lysine peptide change:
Q: Which efficacy of lysine peptide change reading was recorded for the molecule COP(=S)(Oc1cc(Cl)c(Br)cc1Cl)c1ccccc1 (stereo not given) [Leptophos] ?
A: 3.37

Q: For the molecule shown here, Cc1cc(C2(c3cc(C)c(O)cc3C)OS(=O)(=O)c3ccccc32)c(C)cc1O [p-Xylenol blue] , give the reported efficacy of lysine peptide change.
A: 121

Q: Record request: efficacy of lysine peptide change value, item COP(=O)(OC)OC(Br)C(Cl)(Cl)Br (stereo not given) [Naled]
A: -3.08

More entries:
Q: Would you mind telling me what efficacy of lysine peptide change value was observed for C[C@@H]1O[C@@H](O[C@H]2C[C@@H](O)[C@]3(CO)[C@H]4[C@H](O)C[C@]5(C)[C@@H](C6=CC(=O)OC6)CC[C@]5(O)[C@@H]4CC[C@]3(O)C2)[C@H](O)[C@H](O)[C@H]1O [Ouabain] ?
A: 6.65

Q: Please report the recorded efficacy of lysine peptide change for CCCCOCN(C(=O)CCl)c1c(CC)cccc1CC [Butachlor] .
A: 2.3
